Tested on: Escherichia coli TOP10
runDescription: shrunken log2 fold change of peptide-encoding DNA abundance (4.5 h post-induction vs induction); higher = less antimicrobial activity (less host growth inhibition)
testConditions: time post-induction: 4.5 h; library: site-saturation at positions 5, 18, 19, 20
Entries and their shrunken log2 fold change
Note: the reply should be a number with no unit written.

Solved cases (3 shown):
RRIRLRPPRLPRPRPRPESLPRP    0.157
RRIRMRPPRLPRPRPRPCTSPRP    0.0228
RRIRTRPPRLPRPRPRPPNLPRP    0.0303

Tell me the measured shrunken log2 fold change of RRIRMRPPRLPRPRPRPFVFPRP , please.
0.0629

Tell me the measured shrunken log2 fold change of RRIRVRPPRLPRPRPRPAKPPRP , please.
0.296

Tell me the measured shrunken log2 fold change of RRIRTRPPRLPRPRPRPLKIPRP , please.
0.0669

Tell me the measured shrunken log2 fold change of RRIRRRPPRLPRPRPRPTKCPRP , please.
0.114

Tell me the measured shrunken log2 fold change of RRIRTRPPRLPRPRPRPTGCPRP , please.
-0.388

* * *

Test system: Escherichia coli TOP10
runDescription: shrunken log2 fold change of peptide-encoding DNA abundance (4.5 h post-induction vs induction); higher = less antimicrobial activity (less host growth inhibition)
testConditions: time post-induction: 4.5 h; library: site-saturation at positions 5, 18, 19, 20
quantityKind: shrunken log2 fold change

Solved cases (2 shown):
RRIRCRPPRLPRPRPRPQIHPRP    -0.548
RRIRMRPPRLPRPRPRPPIFPRP    0.00125

Tell me the measured shrunken log2 fold change of RRIRWRPPRLPRPRPRPLLYPRP , please.
0.0998

Tell me the measured shrunken log2 fold change of RRIRRRPPRLPRPRPRPIWKPRP , please.
-0.184

* * *

System: Escherichia coli TOP10;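 further: peptides expressed intracellularly from a pBAD plasmid library in pooled LB shake-flask culture, induced with 0.3% L-arabinose, DNA abundance read by NGS, three biological replicates, DESeq2 with apeglm shrinkage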
runDescription: shrunken log2 fold change of peptide-encoding DNA abundance (4.5 h post-induction vs induction); higher = less antimicrobial activity (less host growth inhibition)
testConditions: time post-induction: 4.5 h; library: site-saturation at positions 5, 18, 19, 20
Field: class. Source value: shrunken log2 fold change. Ranges: group 1: < -0.1; group 2: ≥ -0.1 and < 0.06; group 3: ≥ 0.06

RRIRTRPPRLPRPRPRPSWDPRP    group 1
RRIRNRPPRLPRPRPRPQIWPRP    group 2

Hi, small favor: classify RRIRFRPPRLPRPRPRPRYFPRP by its shrunken log2 fold change when you get a moment.
group 2

Hi, small favor: classify RRIRYRPPRLPRPRPRPYEYPRP by its shrunken log2 fold change when you get a moment.
group 2

Hi, small favor: classify RRIRGRPPRLPRPRPRPITQPRP by its shrunken log2 fold change when you get a moment.
group 2

Hi, small favor: classify RRIRERPPRLPRPRPRPMICPRP by its shrunken log2 fold change when you get a moment.
group 1

Hi, small favor: classify RRIRSRPPRLPRPRPRPSDIPRP by its shrunken log2 fold change when you get a moment.
group 1

Hi, small favor: classify RRIRIRPPRLPRPRPRPMKMPRP by its shrunken log2 fold change when you get a moment.
group 1

Hi, small favor: classify RRIRYRPPRLPRPRPRPLSSPRP by its shrunken log2 fold change when you get a moment.
group 1

Hi, small favor: classify RRIRRRPPRLPRPRPRPTLVPRP by its shrunken log2 fold change when you get a moment.
group 3

Hi, small favor: classify RRIRQRPPRLPRPRPRPSQYPRP by its shrunken log2 fold change when you get a moment.
group 1
